- assayed system: Aldehyde dehydrogenase, dimeric NADP-preferring (Homo sapiens, UniProt P30838)
- protocol text: IC50 Determination
quantity: IC50 (µM)

A = CC(C)NS(=O)(=O)c1ccc(NC2CCN(CC(=O)Nc3ccccc3)CC2)c([N+](=O)[O-])c1
B = CC(=O)Nc1ccc(Oc2ccc(S(=O)(=O)C(F)(F)F)cc2[N+](=O)[O-])cc1
C = CN(C)c1ccc(Nc2ccc(S(=O)(=O)C(F)(F)F)cc2[N+](=O)[O-])cc1
q: Falling order of IC50, please. Answer format: list of labels, ordered as asked.
a: B, A, C

====

- assayed system: Aldehyde dehydrogenase, dimeric NADP-preferring (Homo sapiens)
- Sequence (P30838 whole entry): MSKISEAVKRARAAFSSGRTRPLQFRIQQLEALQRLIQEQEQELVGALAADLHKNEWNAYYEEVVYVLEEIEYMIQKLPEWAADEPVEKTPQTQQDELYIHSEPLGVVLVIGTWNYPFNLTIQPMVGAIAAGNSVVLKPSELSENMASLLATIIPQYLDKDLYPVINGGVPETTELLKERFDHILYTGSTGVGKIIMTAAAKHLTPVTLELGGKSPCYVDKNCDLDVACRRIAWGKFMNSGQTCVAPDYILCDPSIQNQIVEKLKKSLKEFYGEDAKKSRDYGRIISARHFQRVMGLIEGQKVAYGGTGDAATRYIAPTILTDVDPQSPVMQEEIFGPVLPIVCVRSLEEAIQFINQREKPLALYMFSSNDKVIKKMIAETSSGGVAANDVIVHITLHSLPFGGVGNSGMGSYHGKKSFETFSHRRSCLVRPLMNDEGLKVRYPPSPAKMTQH
- protocol text: IC50 Determination
quantity: IC50 (µM)

INSERT INTO assay_data (substance_smiles, assayed_system, readout_value) VALUES
  ('CS(=O)(=O)c1ccc(Nc2ccc3c(c2)CCC3)c([N+](=O)[O-])c1', 'Aldehyde dehydrogenase, dimeric NADP-preferring (Homo sapiens)', 26.9),
  ('CNS(=O)(=O)c1ccc(Nc2ccc(NC(=O)CC(C)C)cc2)c([N+](=O)[O-])c1', 'Aldehyde dehydrogenase, dimeric NADP-preferring (Homo sapiens)', 42.3);

I = CCN(CC)S(=O)(=O)c1ccc(Nc2ccc(NC(=O)C(C)C)cc2)c([N+](=O)[O-])c1
II = CC(C)NS(=O)(=O)c1ccc(Nc2ccc3c(c2)CCC3)c([N+](=O)[O-])c1
q: Between I and II , which one shows the smaller IC50 number? Which one? Tell me its label.
a: II

====

Target protein (sequence): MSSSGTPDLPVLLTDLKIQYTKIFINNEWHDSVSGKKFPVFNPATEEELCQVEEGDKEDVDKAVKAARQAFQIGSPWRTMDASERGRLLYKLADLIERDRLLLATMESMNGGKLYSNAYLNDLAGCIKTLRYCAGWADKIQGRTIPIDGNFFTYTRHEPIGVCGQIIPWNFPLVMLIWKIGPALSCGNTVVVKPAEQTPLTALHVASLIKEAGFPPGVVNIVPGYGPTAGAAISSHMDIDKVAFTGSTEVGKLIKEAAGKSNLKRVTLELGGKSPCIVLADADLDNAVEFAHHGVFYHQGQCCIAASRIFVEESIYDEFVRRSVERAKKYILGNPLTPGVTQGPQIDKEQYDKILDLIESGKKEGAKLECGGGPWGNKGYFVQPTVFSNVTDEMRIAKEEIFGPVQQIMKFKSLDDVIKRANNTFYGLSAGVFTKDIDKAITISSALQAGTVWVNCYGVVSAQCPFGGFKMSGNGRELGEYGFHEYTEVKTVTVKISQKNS
quantity: IC50 (µM)

Below, 2 molecules whose answers are already recorded.
INSERT INTO assay_data (molecule, readout_value) VALUES
  ('CCN(CC)S(=O)(=O)c1ccc(Nc2ccc(NC(=O)C(C)C)cc2)c([N+](=O)[O-])c1', 8.3),
  ('CC(C)C(=O)Nc1ccc(Nc2ccc(S(C)(=O)=O)cc2[N+](=O)[O-])cc1', 16.8);

P = CS(=O)(=O)c1ccc(Nc2ccc(NCC3CCCC3)cc2)c(S(C)(=O)=O)c1
Q = CC(Nc1ccc(S(C)(=O)=O)cc1[N+](=O)[O-])C(=O)O (centres undefined)
q: Between P and Q , which one shows the smaller IC50 number? Which one? Tell me its label.
a: P
(P: 32 µM, Q: 50 µM)

====

- assayed system: Aldehyde dehydrogenase, dimeric NADP-preferring (Homo sapiens)
- protocol text: IC50 Determination
quantity: IC50 (µM)

INSERT INTO assay_data (substance_smiles, quantity, readout_value) VALUES
  ('CC(C)C(=O)Nc1ccc(Nc2ccc(S(C)(=O)=O)cc2[N+](=O)[O-])cc1', 'IC50', 19.6),
  ('CC(=O)Nc1ccc(Nc2ccc(S(C)(=O)=O)cc2[N+](=O)[O-])cc1', 'IC50', 16);

a = CC(C)NS(=O)(=O)c1ccc(Nc2cccc(NC3CC3)c2)c([N+](=O)[O-])c1
b = CS(=O)(=O)c1ccc(Nc2ccc(NCC3CCCC3)cc2)c(S(C)(=O)=O)c1
q: Between a and b , which one shows the smaller IC50 number? Which one? Tell me its label.
a: a
(a: 26.3 µM, b: 40 µM)
